Just for reference, paper PMC10114980 is where these values come from.

Assignment: determine reported inhibition at 10 µM for the given compounds.
Test system: SK-MEL-5
Assay: NCI single dose screen, SK-MEL-5
Assay type: cell-based
Settings: Homo sapiens; SK-MEL-5, melanoma; single dose 10^−5 M; read-out: growth inhibition percentage
Procedure: Screening of the anticancer activity of the newly synthesised compounds (6a, 6c, 6d, 6e, 6j, 6l, 6m, 6n, 6o, and 6p) was performed by the US National Cancer Institute (NCI) using 60 different human tumour cell lines in accordance with standard procedures formerly reported. […]

# query: inhibition at 10 µM | item CN1c2ccccc2C(=O)N(NC(=O)Nc2ccc(F)cc2)C1c1ccc(F)cc1 (stereo not shown) | system: SK-MEL-5
20.3%

# query: inhibition at 10 µM | item COc1ccc(NC(=O)NN2C(=O)c3ccccc3N(C)C2c2ccc(OC)cc2)cc1 (stereo not shown) | system: SK-MEL-5
< 10%

# query: inhibition at 10 µM | item CN1c2ccccc2C(=O)N(NC(=O)Nc2ccccc2)C1c1ccc([N+](=O)[O-])cc1 (stereo not shown) | system: SK-MEL-5
< 10%

# query: inhibition at 10 µM | item CN1c2ccccc2C(=O)N(NC(=O)Nc2ccc(F)cc2)C1c1ccc([N+](=O)[O-])cc1 (stereo not shown) | system: SK-MEL-5
13.7%

# query: inhibition at 10 µM | item CC1N(NC(=O)Nc2ccc(F)cc2)C(=O)c2ccccc2N1C (stereo not shown) | system: SK-MEL-5
< 10%

# query: inhibition at 10 µM | item CN1c2ccccc2C(=O)N(NC(=O)Nc2ccccc2)C1c1ccccc1 (stereo not shown) | system: SK-MEL-5
< 10%

# query: inhibition at 10 µM | item CN1c2ccccc2C(=O)N(NC(=O)Nc2ccc(F)cc2)C1c1ccccc1 (stereo not shown) | system: SK-MEL-5
15.9%

# query: inhibition at 10 µM | item CN1c2ccccc2C(=O)N(NC(=O)Nc2ccccc2)C1c1ccc(F)cc1 (stereo not shown) | system: SK-MEL-5
< 10%

# query: inhibition at 10 µM | item CN1CN(NC(=O)Nc2ccccc2)C(=O)c2ccccc21 | system: SK-MEL-5
< 10%

# query: inhibition at 10 µM | item COc1ccc(C2N(NC(=O)Nc3ccc(F)cc3)C(=O)c3ccccc3N2C)cc1 (stereo not shown) | system: SK-MEL-5
< 10%

* * *

Test system: M14
Assay: NCI single dose screen, M14
Format: cell-based
Settings: Homo sapiens; M14, melanoma; single dose 10^−5 M; read-out: growth inhibition percentage
property_measured: inhibition at 10 µM (%)
Reply numerically in %, unit not repeated.

GET /values?readout=inhibition at 10 µM&item= COc1ccc(NC(=O)NN2C(=O)c3ccccc3N(C)C2c2ccc(OC)cc2)cc1 (stereo not shown)
29.6

GET /values?readout=inhibition at 10 µM&item= CN1c2ccccc2C(=O)N(NC(=O)Nc2ccccc2)C1c1ccc([N+](=O)[O-])cc1 (stereo not shown)
67.2

GET /values?readout=inhibition at 10 µM&item= CN1c2ccccc2C(=O)N(NC(=O)Nc2ccc(F)cc2)C1c1ccccc1 (stereo not shown)
18.9

GET /values?readout=inhibition at 10 µM&item= CN1c2ccccc2C(=O)N(NC(=O)Nc2ccc(F)cc2)C1c1ccc(F)cc1 (stereo not shown)
23.2

GET /values?readout=inhibition at 10 µM&item= COc1ccc(C2N(NC(=O)Nc3ccc(F)cc3)C(=O)c3ccccc3N2C)cc1 (stereo not shown)
11.8

GET /values?readout=inhibition at 10 µM&item= CN1c2ccccc2C(=O)N(NC(=O)Nc2ccc(F)cc2)C1c1ccc([N+](=O)[O-])cc1 (stereo not shown)
18
